- Test system: LOX IMVI
- Measurement notes: NCI tumour cell line growth inhibition, 48 h
Activity calls are given as the source filed them. Cut-off read from the data, not from the text of the source: active = GI50 up to about 1.1 µM and inactive = higher.
// one of active, inactive, no free text

Compound | Category label
CCOC(=O)N1CCNCCN(C(=O)OCC)CCNCC1 | inactive
O=c1cc(-c2ccccc2F)[nH]c2cc3c(cc12)OCO3 | active
O=C1OC(OC/C(Br)=C(/Br)COC2OC(=O)C(Cl)=C2Cl)C(Cl)=C1Cl (centres undefined) | inactive
C[C@]12CCC(N3CCCC3)CC1=CC[C@@H]1[C@@H]2CC[C@]2(C)C(O)[C@H](n3ccnc3)C[C@@H]12 (some centres undefined) | inactive

Query string: // outcome(item) with item = Cc1ccc(C(=O)N/N=C(\N=N\c2ccccc2Cl)c2ccc(N(C)C)cc2)cc1
Result string: inactive

Query string: // outcome(item) with item = c1ccc2c(CNCCCCCCCCCCCCNCc3cccc4ccccc34)cccc2c1
Result string: inactive

Query string: // outcome(item) with item = CCOC(=O)N1CCN(c2nc(C)n(-c3ccccc3)c(=S)c2C#N)CC1
Result string: inactive

Query string: // outcome(item) with item = CC1OC(OC2C(Oc3cc(O)c4c(c3)O[C@H](c3ccc(O)cc3)CC4=O)OC(CO)C(O)C2O)C(O)C(O)C1O (some centres undefined)
Result string: inactive

Query string: // outcome(item) with item = Nn1c(CCCCCCCCc2nnc(-c3c(O)ccc4ccccc34)n2N)nnc1-c1c(O)ccc2ccccc12
Result string: inactive

====

- System: DMS-273
- Measurement notes: NCI tumour cell line growth inhibition, 48 h
Activity calls are given as the source filed them. Cut-off read from the data, not from the text of the source: active = GI50 up to about 1.1 µM and inactive = higher.
// one of TRUE (active), FALSE (inactive), no free text

Molecule | Category label
C[C@H](NS(=O)(=O)c1ccc(NC(=O)c2ccccc2)cc1)C(=O)O | FALSE

Query string: // outcome(item) with item = O=C(Nc1ccc(Cl)c(Cl)c1)C(=O)C(C(=O)c1ccccc1F)C1OC(=O)c2ccccc21 (stereo not given)
Result string: FALSE

Query string: // outcome(item) with item = N#CC1CC2(C1)OCCS2 (stereo not given)
Result string: FALSE

Query string: // outcome(item) with item = CCOC(=O)CCC1(C(=O)OCC)CCCCC1=O (stereo not given)
Result string: FALSE

====

- Test system: A498
- Measurement notes: NCI tumour cell line growth inhibition, 48 h
Active and inactive are the calls of the source. No stated cut-off is given here; in the data, active = GI50 up to about 1.1 µM and inactive = higher.
// one of label 1 (active), label 0 (inactive), no free text

Molecule | Category label
CCOC(=O)CCC1(C(=O)OCC)CCCCC1=O (stereo unspecified) | label 0
C=C[C@]1(O)CCC[C@]2(C)C(=O)CCC12C (stereo partly specified) | label 0
COc1cc(C2C3=C(COC3=O)Oc3cc4c(cc32)OCO4)cc(OC)c1OC(C)=O (stereo unspecified) | label 1

Query string: // outcome(item) with item = COC(=O)N1C[C@@]2(C=CC3(CC2)OCCO3)c2ccccc21
Result string: label 0

Query string: // outcome(item) with item = O=C1CSc2ccnc(=O)n21
Result string: label 0

Query string: // outcome(item) with item = O=C(CBr)NCCc1c[nH]c2ccccc12
Result string: label 0

Query string: // outcome(item) with item = COC(=O)Nc1nc2cc(S(=O)(=O)Nc3ccccn3)ccc2[nH]1
Result string: label 0

Query string: // outcome(item) with item = O=c1oc2ccccc2c(-c2ccc(O)cc2)c1Oc1ccccc1
Result string: label 0
